Data credit: patent US20220257532A1

# measured-on: butyrylcholinesterase (BChE, EC3.1.1.8) (Equus caballus, UniProt P81908)
# Construct: horse serum butyrylcholinesterase (BChE, EC3.1.1.8); purchased Sigma-Aldrich Co. (St. Louis, Mo., USA); host or cells: horse serum
# Sequence (P81908 whole entry): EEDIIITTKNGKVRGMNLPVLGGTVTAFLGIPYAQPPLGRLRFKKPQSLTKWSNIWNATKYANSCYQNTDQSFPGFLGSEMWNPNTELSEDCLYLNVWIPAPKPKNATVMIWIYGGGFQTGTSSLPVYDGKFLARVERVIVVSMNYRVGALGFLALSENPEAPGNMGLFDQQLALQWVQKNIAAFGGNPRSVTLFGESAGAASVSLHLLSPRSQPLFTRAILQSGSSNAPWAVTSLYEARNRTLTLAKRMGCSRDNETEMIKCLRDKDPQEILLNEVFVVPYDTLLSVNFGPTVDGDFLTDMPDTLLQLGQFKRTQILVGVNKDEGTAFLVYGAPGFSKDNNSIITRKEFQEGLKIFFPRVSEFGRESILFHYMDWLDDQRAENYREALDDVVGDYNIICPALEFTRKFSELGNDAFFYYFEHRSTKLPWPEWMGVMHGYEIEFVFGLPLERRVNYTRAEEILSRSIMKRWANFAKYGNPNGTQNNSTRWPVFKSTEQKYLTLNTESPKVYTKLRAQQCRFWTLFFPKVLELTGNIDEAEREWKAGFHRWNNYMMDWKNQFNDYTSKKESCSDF
# procedure-text: In vitro cholinesterase activity assay (Ellman) and enzyme kinetics, BChE
# Assay type: biochemical
# condition-summary: Dixon plot and Lineweaver plot
recorded-metric: Inhibition type Butyrylcholinesterase

{"compound": "Cc1cc2c(c(C)c1CCO)C(=O)[C@H](C)[C@H]2O [Compound 7, (2R,3R)-pterosin C]", "recorded-value": "mixed"}
{"compound": "Cc1cc2c(c(C)c1CCO[C@@H]1OC(CO)[C@@H](O)[C@H](O)C1O)C(=O)[C@H](C)C2 (stereo partly drawn) [Compound 14, (2R)-pteroside B]", "recorded-value": "mixed"}
{"compound": "Cc1cc2c(c(C)c1CCO)C(=O)[C@@H](C)[C@H]2O [Compound 8, (2S,3R)-pterosin C]", "recorded-value": "noncompetitive"}
{"compound": "Cc1cc2c(c(C)c1CCO)C(=O)[C@H](C)C2 [Compound 4, (2R)-pterosin B]", "recorded-value": "noncompetitive"}

====

# measured-on: BACE1 (β-secretase, recombinant human enzyme) (Homo sapiens, UniProt P56817)
# Sequence (P56817 46-501): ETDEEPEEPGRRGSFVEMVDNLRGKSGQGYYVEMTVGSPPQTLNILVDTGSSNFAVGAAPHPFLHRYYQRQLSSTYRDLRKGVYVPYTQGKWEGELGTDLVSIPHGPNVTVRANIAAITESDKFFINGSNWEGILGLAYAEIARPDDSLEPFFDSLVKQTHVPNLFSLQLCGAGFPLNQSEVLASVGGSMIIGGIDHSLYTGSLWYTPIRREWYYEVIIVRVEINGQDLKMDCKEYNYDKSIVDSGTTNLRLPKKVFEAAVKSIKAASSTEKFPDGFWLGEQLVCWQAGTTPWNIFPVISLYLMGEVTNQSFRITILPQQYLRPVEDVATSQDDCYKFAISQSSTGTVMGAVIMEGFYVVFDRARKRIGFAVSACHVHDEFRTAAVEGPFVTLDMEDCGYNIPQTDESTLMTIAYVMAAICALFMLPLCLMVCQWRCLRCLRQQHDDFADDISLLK
# procedure-text: biochemical
# Format: biochemical
# condition-summary: Dixon plot and Lineweaver plot
recorded-metric: Inhibition type BACE1

Observe how each entry below is paired with its result.
{"compound": "Cc1cc2c(c(C)c1CCO[C@@H]1OC(CO)[C@@H](O)[C@H](O)C1O)C(=O)[C@H](C)[C@H]2O (stereo partly drawn) [Compound 16, (2R,3R)-pteroside C]", "recorded-metric": "Inhibition type BACE1", "recorded-value": "mixed"}
{"compound": "Cc1cc2c(c(C)c1CCO)C(=O)[C@H](C)[C@H]2O", "recorded-metric": "Inhibition type BACE1", "recorded-value": "mixed"}
{"compound": "Cc1cc2c(c(C)c1CCO)C(=O)[C@H](C)C2", "recorded-metric": "Inhibition type BACE1", "recorded-value": "noncompetitive"}
{"compound": "Cc1cc2c(c(C)c1CCO[C@@H]1OC(CO)[C@@H](O)[C@H](O)C1O)C(=O)C(C)(C)[C@H]2O (stereo partly drawn) [Compound 17, (3S)-pteroside D]", "recorded-metric": "Inhibition type BACE1", "recorded-value": "mixed"}
{"compound": "Cc1cc2c(c(C)c1CCO[C@@H]1OC(CO)[C@@H](O)[C@H](O)C1O)C(=O)[C@H](C)C2 (stereo partly drawn) [Compound 14, (2R)-pteroside B]", "recorded-metric": "Inhibition type BACE1", "recorded-value": "noncompetitive"}

Data request: Field request: Inhibition type BACE1 | item: "Cc1cc2c(c(C)c1CCO)C(=O)[C@@H](C)[C@H]2O"
Data returned: noncompetitive

====

# measured-on: acetylcholinesterase (AChE, EC3.1.1.7) (Electrophorus electricus, UniProt O42275)
# Construct: purchased Sigma-Aldrich Co. (St. Louis, Mo., USA)
# Sequence (O42275 24-633): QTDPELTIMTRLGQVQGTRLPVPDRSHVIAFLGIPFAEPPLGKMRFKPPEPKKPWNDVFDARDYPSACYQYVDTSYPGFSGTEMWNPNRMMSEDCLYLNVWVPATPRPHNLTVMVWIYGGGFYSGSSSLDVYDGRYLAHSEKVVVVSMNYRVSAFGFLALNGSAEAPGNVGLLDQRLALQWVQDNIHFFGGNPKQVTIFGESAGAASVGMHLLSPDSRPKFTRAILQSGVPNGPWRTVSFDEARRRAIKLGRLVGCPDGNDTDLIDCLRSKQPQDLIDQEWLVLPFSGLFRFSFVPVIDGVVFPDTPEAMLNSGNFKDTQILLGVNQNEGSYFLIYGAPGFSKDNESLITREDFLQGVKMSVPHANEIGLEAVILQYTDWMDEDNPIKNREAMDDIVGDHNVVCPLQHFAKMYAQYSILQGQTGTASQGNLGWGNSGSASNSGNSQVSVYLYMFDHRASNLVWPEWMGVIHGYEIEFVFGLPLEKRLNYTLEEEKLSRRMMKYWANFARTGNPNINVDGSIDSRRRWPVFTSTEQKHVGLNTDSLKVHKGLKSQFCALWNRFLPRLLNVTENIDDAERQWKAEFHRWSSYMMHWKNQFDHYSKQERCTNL
# procedure-text: In vitro cholinesterase activity assay (Ellman) and enzyme kinetics, AChE
# Type: biochemical
recorded-metric: pIC50
Numbers only, as −log10 of the molar value.

Data request: // fetch acetylcholinesterase (AChE, EC3.1.1.7) (Electrophorus electricus, UniProt O42275) pIC50 for CC(=O)C1(/C(C)=C\C2=CC(=O)C(C)C2)CC1 (stereo not shown)
Data returned: 4.06
